target.desc: T1, human transferrin receptor (recombinant, for surface plasmon resonance) (human, UniProt P02786 89-760)
T1 construct: also called huTfR; human transferrin receptor-biotinylated
method.summary: SPR 25C
Lab note: anything with koff at or over 0.004 s⁻¹ counts as y; the rest go in n.

| binder | label |
| --- | --- |
| 2/99 VH16/VL4 (antibody, V domains shown) VH: QQLQESGPGLVKPSETLSLTCTVSGFSLSSYAMSWVRQPPGKGLEWIGYIWSGGSTDYNPSLKSRVTISVDTSKNQVSLKLSSVTAADTAVYYCARRYGTSYPDYGDANGFDPWGPGTLVTVSS VL: AYQMTQSPSSLSASVGDRVTITCRASQSISSYLSWYQQKPGKAPKLLIYRASTLASGVPSRFSGSGSGTDFTLTISSLQPEDFATYYCQQSYSSSNVDNTFGGGTKVEIK | n |
| 2/99 VH2/VL15 (antibody, V domains shown) VH: EVQLVETGGGLIQPGGSLRLSCAASGFSLSSYAMSWVRQAPGKGLEWVGYIWSGGSTDYADSVKGRFTISRDNSKNTLYLQMNSLRAEDTAVYYCARRYGTSYPDYGDANGFDPWGQGTLVTVSS VL: DIVMTQSPDSLAVSLGERATINCKSSQSISSYLIWYQQKPGQPPKLLIYRASTLASGVPDRFSGSGSGTDFTLTISSLQAEDVAVYYCQQAYSSSNVDNTFGGGTKVEIK | y |
| 2/99 VH16/VL1 (antibody, V domains shown) VH: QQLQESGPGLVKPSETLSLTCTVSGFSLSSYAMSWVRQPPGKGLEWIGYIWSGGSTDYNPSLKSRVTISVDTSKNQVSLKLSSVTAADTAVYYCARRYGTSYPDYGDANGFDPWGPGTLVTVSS VL: DIQMTQSPSSLSASVGDRVTITCRASQSISSYLNWYQQKPGKAPKLLIYRASSLQSGVPSRFSGSGSGTDFTLTISSLQPEDFATYYCQQSYSSSNVDNTFGGGTKVEIK | y |
| 2/99 VH11/VL14 (antibody, V domains shown) VH: QQLLESGGGLVQPGGSLRLSCAASGFSLSSYAMSWVRQAPGKGLEWVGYIWSGGSTDYADSVKGRFTISRDNSKNTLYLQMNSLRAEDTAVYYCARRYGTSYPDYGDANGFDPWGQGTLVTVSS VL: DIVMTQSPDSLAVSLGERATINCKSSQSISSYLSWYQQKPGQRPKLLIYRASTLASGVPDRFSGSGSGTDFTLTISSLQAEDVAVYYCQQSYSSSNVDNTFGGGTKVEIK | n |
| 2/99 VH7/VL5 (antibody, V domains shown) VH: QQLVETGGGLIQPGGSLRLSCAASGFSLSSYAMSWVRQAPGKGLEWIGYIWSGGSTDYASWAKGRFTISRDNSKNTLYLQMNSLRAEDTAVYYCARRYGTSYPDYGDANGFDPWGQGTLVTVSS VL: DIQMTQSPSSLSASVGDRVTITCRASQSISSYLSWYQQKPGKAPKLLIYRASTLASGVPSRFSGSGSGTDFTLTISSLQPEDFATYYCQQSYSSSNVDNTFGGGTKVEIK | n |
